- Assay Comment: in vivo
- Settings: FVB/129/Sv, mouse, ip
Property: MTD at 3 treatment cycles (5 consecutive days of daily dosing each) (mg/kg)
Your answer is read as mg/kg, so omit the unit and give the number.

Return value of MTD at 3 treatment cycles (5 consecutive days of daily dosing each) for input O=c1[nH]cc(F)c(=O)[nH]1 , no commentary.
25
